Origin of values: patent US10800741B2

- System: A375
- assayComment: In vitro growth inhibition of A375 cells
- Assay type: cell-based
- details: Homo sapiens, A-375, BRAF V600E, FGFR2 mutant
- Description: Adherent cells were digested with 0.25% trypsin-EDTA (Gibco). Suspension culture cells were collected by centrifugation (1700 rpm, 3 minutes). The supernatant was discarded and the cells were counted. […] The MTT test reagent was a Dojindo CCK8 kit and the Microplate Reader was a THERMO […] […]
observationType: IC50 (nM)

I = COc1cc2nccc(Oc3ccc(NC(=O)Nc4cc(C(C)(C)C)nn4C)c(Cl)c3Cl)c2cc1C(N)=O
II = COc1cc2nccc(Oc3ccc(NC(=O)Nc4cc(C(C)(C)C)n[nH]4)c(Cl)c3)c2cc1C(N)=O
III = COCCOc1cc2nccc(Oc3ccc(NC(=O)Nc4cc(C(C)(C)C)n[nH]4)c(Cl)c3)c2cc1NC(C)=O
IV = CN1CCN(CCCOc2cc3nccc(Oc4ccc(NC(=O)Nc5cc(C(C)(C)C)n[nH]5)c(Cl)c4Cl)c3cc2C(N)=O)CC1
# sort list by recorded IC50, greatest to least Form field (ranking): labels in requested order.
II, IV, III, I
(II: 129 nM, IV: 62.1 nM, III: 31.5 nM, I: 16.7 nM)

====

- Test system: KATO III (FGFR2 amp)
- assayComment: In vitro growth inhibition of KATO III tumor cells (MTT/CCK8)
- Assay type: cell-based, Human
- details: Homo sapiens, KATO III; in vitro growth inhibition (or induction of apoptosis), cells cultured 3 to 5 days, MTT (CCK8); read-out: IC50 KATO III (FGFR2 amp)
observationType: IC50 (nM)

See these solved cases before continuing.
* CCC(=O)n1nc(C(C)(C)C)cc1NC(=O)Nc1ccc(Oc2ccnc3cc(OC)c(C(N)=O)cc23)cc1Cl [Compound 29] | 1.48
* COc1cc2nccc(Oc3ccc(NC(=O)Nc4cc(C(C)(C)C)on4)c(C(F)(F)F)c3)c2cc1C(N)=O [Compound 4] | 2.93
* COc1cc2nccc(Oc3ccc(NC(=O)Nc4cc(C(C)(C)C)n[nH]4)cc3C(C)C)c2cc1C(N)=O [Compound 107] | 345
* COc1cc2nccc(Nc3ccc(NC(=O)Nc4cc(C(C)(C)C)on4)c(Cl)c3)c2cc1C(N)=O [Compound 77] | 17
* CN1CCN(CCCOc2cc3nccc(Oc4ccc(NC(=O)Nc5cc(C(C)(C)C)nn5C5CCCC5)c(Cl)c4)c3cc2C(N)=O)CC1 [Compound 139] | 1.14

P = CNC(=O)c1cc2c(Oc3ccc(NC(=O)Nc4cc(C(C)(C)C)nn4C)c(Cl)c3)ccnc2cc1OC [Compound 46]
Q = COc1cc2nccc(Oc3ccc(N(C)C(=O)Nc4cc(C(C)(C)C)on4)cc3)c2cc1C(N)=O [Compound 11]
Please indicate which has the smaller reported IC50: P , or Q . Lab log: write the label of the selected item as the result.
P

====

- System: H1703 (PDGFRa amp)
- assayComment: In vitro growth inhibition of H1703 tumor cells (MTT/CCK8)
- Type: cell-based, Human
- details: Homo sapiens, NCI-H1703; in vitro growth inhibition (or induction of apoptosis), cells cultured 3 to 5 days, MTT (CCK8); read-out: IC50 H1703 (PDGFRa amp)
observationType: IC50 (nM)

# annotated cases, reported IC50 shown
• COc1cc2nccc(Oc3ccc(NC(=O)Nc4cc(C(C)(C)C)n[nH]4)cc3C(C)C)c2cc1C(N)=O = 263
• CNC(=O)c1cc2c(Oc3ccc(NC(=O)Nc4cc(C(C)(C)C)n[nH]4)cc3C)ccnc2cc1OC = 62.4
• COc1cc2nccc(Oc3ccc(NC(=O)Nc4cc(C(C)(C)C)n[nH]4)c(C(F)(F)F)c3)c2cc1C(N)=O = 73
• COc1cc2nccc(Oc3ccc(NC(=O)Nc4cc(C(C)(C)C)on4)c(Cl)c3)c2cc1NC(C)=O = 8.71
• C=CC(=O)n1nc(C(C)(C)C)cc1NC(=O)Nc1ccc(Oc2ccnc3cc(OC)c(C(N)=O)cc23)cc1Cl = 17.1
• CC(C)(C)c1cc(NC(=O)Nc2ccc(Oc3ccnc4cc(OCCCN5CCN(C(C)(C)C)CC5)c(C(N)=O)cc34)cc2Cl)[nH]n1 = 12.5
• CC(C)(C)c1cc(NC(=O)Nc2ccc(Oc3ccnc4cc(O)c(C(N)=O)cc34)c(Cl)c2Cl)[nH]n1 = 453
• COc1cc2nccc(Oc3ccc(NC(=O)Nc4cc(C(C)(C)C)nn4C)c(Cl)c3)c2cc1C(N)=O = 8.2

a = COc1cc2nccc(Oc3ccc(NC(=O)Nc4cc(C(C)(C)C)n[nH]4)cc3C)c2cc1NC(C)=O
b = COCCN1CCN(CCCOc2cc3nccc(Oc4ccc(NC(=O)Nc5cc(C(C)(C)C)n[nH]5)c(Cl)c4)c3cc2C(N)=O)CC1
c = COc1cc2nccc(Oc3ccc(NC(=O)Nc4cc(C(C)(C)C)n[nH]4)cn3)c2cc1C(N)=O
d = COc1cc2nccc(Nc3ccc(NC(=O)Nc4cc(C(C)(C)C)n[nH]4)c(Cl)c3)c2cc1C(N)=O
e = COc1cc2nccc(Oc3ccc(NC(=O)Nc4cc(C(C)(C)C)nn4C)c(Cl)c3C)c2cc1C(N)=O
Arrange these molecules by their IC50, starting with the largest number. Could you list the labels in the order requested?
c, d, a, b, e

====

- System: H1703 (PDGFRa amp)
- assayComment: In vitro growth inhibition of H1703 tumor cells (MTT/CCK8)
- Assay type: cell-based, Human
- details: Homo sapiens, NCI-H1703; in vitro growth inhibition (or induction of apoptosis), cells cultured 3 to 5 days, MTT (CCK8); read-out: IC50 H1703 (PDGFRa amp)
observationType: IC50 (nM)

- COc1cc2nccc(Oc3ccc(NC(=O)Nc4cc(C5CC5)n[nH]4)c(Cl)c3)c2cc1C(N)=O: 124

P = CCn1nc(C(C)(C)C)cc1NC(=O)Nc1ccc(Oc2ccnc3cc(OC)c(C(=O)NC)cc23)cc1Cl
Q = COc1cc2nccc(Nc3ccc(NC(=O)Nc4cc(C(C)(C)C)n[nH]4)cc3Cl)c2cc1C(N)=O
R = CNC(=O)c1cc2c(Oc3ccc(NC(=O)Nc4cc(C(C)(C)C)n[nH]4)c(Cl)c3)ccnc2cc1OC
Rank ascending by IC50. The labels, placed in the requested order, form the answer.
P, R, Q
(P: 14.7 nM, R: 25.7 nM, Q: 342 nM)

====

- System: Kasumi-1 (KIT N822K)
- assayComment: In vitro growth inhibition of Kasumi-1 tumor cells (MTT/CCK8)
- Type: cell-based, Human
- details: Homo sapiens, Kasumi 1; in vitro growth inhibition (or induction of apoptosis), cells cultured 3 to 5 days, MTT (CCK8); read-out: IC50 Kasumi-1 (KIT N822K)
pIC50: −log10 of the molar value.
observationType: pIC50

A = CNC(=O)c1cc2c(Oc3ccc(NC(=O)Nc4cc(C(C)(C)C)nn4C)c(Cl)c3Cl)ccnc2cc1OC
B = CC(C)(C)c1cc(NC(=O)Nc2ccc(Oc3ccnc4cc(OCCN5CCCCC5)c(C(N)=O)cc34)c(Cl)c2Cl)[nH]n1
C = CN1CCCN(CCCOc2cc3nccc(Oc4ccc(NC(=O)Nc5cc(C(C)(C)C)n[nH]5)c(Cl)c4)c3cc2C(N)=O)CC1
D = CN(C)CCOc1cc2nccc(Oc3ccc(NC(=O)Nc4cc(C(C)(C)C)n[nH]4)c(Cl)c3Cl)c2cc1C(N)=O
Ascending sort, pIC50. Output spec: labels arranged per the requested ranking.
B, C, D, A

====

- System: H1581 (FGFR1 amp)
- assayComment: In vitro growth inhibition of H1581 tumor cells (MTT/CCK8)
- Assay type: cell-based, Human
- details: Homo sapiens, NCI-H1581; in vitro growth inhibition (or induction of apoptosis), cells cultured 3 to 5 days, MTT (CCK8); read-out: IC50 H1581 (FGFR1 amp)
observationType: IC50 (nM)

Past entries and their recorded results:
- CNC(=O)c1cc2c(Oc3ccc(NC(=O)Nc4cc(C(C)(C)C)nn4C)c(C)c3)ccnc2cc1OC [Compound 50]: 59.5
- COCCOc1cc2nccc(Oc3ccc(NC(=O)Nc4cc(C(C)(C)C)nn4C4CCNCC4)cc3)c2cc1NC(C)=O [Compound 120]: 78.6
- COCCOc1cc2nccc(Oc3ccc(NC(=O)Nc4cc(C(C)(C)C)nn4CCN4CCOCC4)cc3Cl)c2cc1NC(C)=O [Compound 137]: 41.2
- COc1cc2nccc(Oc3ccc(NC(=O)Nc4cc(C(C)(C)C)n[nH]4)cn3)c2cc1C(N)=O [Compound 108]: 146
- CNC(=O)c1cc2c(Oc3ccc(NC(=O)Nc4cc(C(C)(C)C)nn4C)c(Cl)c3)ccnc2cc1OC [Compound 46]: 3.06
- C=CC(=O)n1nc(C(C)(C)C)cc1NC(=O)Nc1ccc(Oc2ccnc3cc(OC)c(C(N)=O)cc23)cc1Cl [Compound 28]: 17.4
- COc1cc2nccc(Nc3ccc(NC(=O)Nc4cc(C(C)(C)C)on4)cc3Cl)c2cc1C(N)=O [Compound 100]: 271
- COc1cc2nccc(Nc3ccc(NC(=O)Nc4cc(C(C)(C)C)on4)cc3C)c2cc1C(N)=O [Compound 99]: 294
- COc1cc(Oc2ccnc3cc(OC)c(C(N)=O)cc23)ccc1NC(=O)Nc1cc(C(C)(C)C)on1 [Compound 5]: 65.3
- COc1cc2nccc(Oc3ccc(NC(=O)Nc4cc(C(C)(C)C)on4)c(Cl)c3)c2cc1NC(=O)C1CCCC1 [Compound 23]: 227

A = CCn1nc(C(C)(C)C)cc1NC(=O)Nc1ccc(Oc2ccnc3cc(OC)c(C(=O)NC)cc23)cc1Cl [Compound 47]
B = COc1cc2nccc(Oc3ccc(NC(=O)Nc4cc(C(C)(C)C)on4)cn3)c2cc1C(N)=O [Compound 24]
Hi, I'm comparing A with B and wondering which one has the bigger number for IC50. Any idea? Which one? Tell me its label.
B
(B: 493 nM, A: 4.93 nM)
